Test system: CMS
test description: cells
Design: species or system AML cell lines (8); Secondary HTS, 10-point dose-response in triplicate, Cell Titer Glo viability, four-parameter fit EC50
condition description: 72 h, read-out: CMS
measurement type: EC50

Some entries whose results are on file:
Cc1nc2ccc(CN(C)c3ccc(C(=O)N[C@@H](CCC(=O)O)C(=O)O)s3)cc2c(=O)[nH]1 [RALTITREXED]    > 10 µM
CC(C)c1cc(-c2n[nH]c(=O)n2-c2ccc3c(ccn3C)c2)c(O)cc1O [GANETESPIB]    0.0096 µM
CC(C)(C)c1ccc(S(=O)(=O)/C=C/C#N)cc1 [SJ000287676, BAY 11-7085]    3.1 µM
Cc1cccc(-c2nn3c(c2-c2ccnc4ccc(C(N)=O)cc24)CCC3)n1 [LY2157299]    > 10 µM
COc1ccc([C@@]23Oc4cc(OC)cc(OC)c4[C@]2(O)[C@H](O)[C@H](C(=O)N(C)C)[C@H]3c2ccccc2)cc1 [SJ000834151, ROCAGLAMIDE A]    0.017 µM
O=C(c1cc(Cc2n[nH]c(=O)c3ccccc23)ccc1F)N1CCN(C(=O)C2CC2)CC1 [OLAPARIB]    > 10 µM
CC(C)NCCCn1c(Sc2cc3c(cc2I)OCO3)nc2c(N)ncnc21 [SJ000821568, PU-H71]    0.18 µM

// below: EC50 requested for another compound
The compound identified as C[C@]1(c2nc3c(C(N)=O)cccc3[nH]2)CCCN1 [VELIPARIB] registered its EC50 at > 10 µM
